Target: T1, human folate receptor alpha expressed on cells (transfected HEK293T, HeLa, MCF7, MDA-MB-231) (human, UniProt P15328 25-234)
T1 construct: HEK293T transiently transfected with human FOLR1; also called native human FRα; cell-expressed human FOLR1
T1 sequence (P15328 25-234 limits assumed): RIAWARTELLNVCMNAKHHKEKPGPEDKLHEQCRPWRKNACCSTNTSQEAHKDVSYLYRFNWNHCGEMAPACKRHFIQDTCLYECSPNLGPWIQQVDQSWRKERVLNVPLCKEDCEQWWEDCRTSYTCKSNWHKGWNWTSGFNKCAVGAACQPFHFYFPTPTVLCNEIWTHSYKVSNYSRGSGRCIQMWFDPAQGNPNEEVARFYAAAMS
Assay: flow cytometry on HeLa cells, anti-Flag detection

BINDER	MFI top (MFI)
P01500050: P01500001(G28T, D72P)-FLAG3-HIS6 (VHH, also called P0150050) VHH: EVQLVESGGGLVQPGGSLRLSCAASGSTFSGMIMGWYRQAPGKQRELVATVTSHGTTNYADSVKGRFTISRPNAKNTVYLQMNSLRPEDTAVYYCNAHFPGIYWGKGTLVTVSS	62500
P01500047: P01500001(G26E, G28T, S30I, I33L)-FLAG3-HIS6 (VHH, also called P0150047) VHH: EVQLVESGGGLVQPGGSLRLSCAASESTFIGMLMGWYRQAPGKQRELVATVTSHGTTNYADSVKGRFTISRDNAKNTVYLQMNSLRPEDTAVYYCNAHFPGIYWGKGTLVTVSS	59100
P01500053: P01500001(S30I, I33L, N73P)-FLAG3-HIS6 (VHH, also called P0150053) VHH: EVQLVESGGGLVQPGGSLRLSCAASGSGFIGMLMGWYRQAPGKQRELVATVTSHGTTNYADSVKGRFTISRDPAKNTVYLQMNSLRPEDTAVYYCNAHFPGIYWGKGTLVTVSS	51200
P01500049: P01500001(G26E)-FLAG3-HIS6 (VHH, also called P0150049) VHH: EVQLVESGGGLVQPGGSLRLSCAASESGFSGMIMGWYRQAPGKQRELVATVTSHGTTNYADSVKGRFTISRDNAKNTVYLQMNSLRPEDTAVYYCNAHFPGIYWGKGTLVTVSS	46600
